Just for reference, patent US20150037348A1 is where these values come from.

MEASURED_ON: T1, recombinant human IL-12 (rhIL-12) (human, UniProt P29459 23-219; P29460 23-328)
T1 sequence (looked up) 1: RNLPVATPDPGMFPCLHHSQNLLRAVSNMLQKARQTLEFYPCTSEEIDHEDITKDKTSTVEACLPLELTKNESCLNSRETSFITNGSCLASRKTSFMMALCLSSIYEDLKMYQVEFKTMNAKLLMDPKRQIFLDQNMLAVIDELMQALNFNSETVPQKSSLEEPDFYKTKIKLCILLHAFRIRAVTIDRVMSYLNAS
T1 sequence (looked up) 2: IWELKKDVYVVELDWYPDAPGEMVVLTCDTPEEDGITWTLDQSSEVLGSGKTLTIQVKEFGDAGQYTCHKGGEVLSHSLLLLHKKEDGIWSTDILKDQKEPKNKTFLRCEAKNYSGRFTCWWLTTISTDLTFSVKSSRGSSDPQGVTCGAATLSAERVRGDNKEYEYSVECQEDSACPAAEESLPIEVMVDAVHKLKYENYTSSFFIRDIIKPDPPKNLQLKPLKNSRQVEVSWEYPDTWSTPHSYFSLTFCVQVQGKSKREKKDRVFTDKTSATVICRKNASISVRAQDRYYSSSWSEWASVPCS
ASSAY_METHOD_TEXT: cell-based or functional assay
REPORTED_METRIC: PHA assay IC50 (nM)
Numeric answer only, unit nM assumed.

Field: example entries. Status: answers known.
• C6 (scFv, V domains shown, scFv clone) VH: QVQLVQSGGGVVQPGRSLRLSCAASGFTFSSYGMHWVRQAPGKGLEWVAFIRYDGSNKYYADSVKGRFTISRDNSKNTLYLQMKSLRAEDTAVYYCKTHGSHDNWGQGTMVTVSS VL: SYVLTQPPSVSGTPGQRVTISCSGGRSNIGSNTVKWYQQLPGTAPKLLIYGNDQRPSGVPDRFSGSKSGTSASLAITGVQAEDEADYYCQSYDRGQTPSITFGTGTKVTVL = 10
• Y38 (scFv, V domains shown, scFv clone) VH: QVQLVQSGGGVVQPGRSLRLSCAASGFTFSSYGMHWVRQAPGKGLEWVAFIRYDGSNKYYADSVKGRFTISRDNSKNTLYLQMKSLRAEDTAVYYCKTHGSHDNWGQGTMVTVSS VL: SYVLTQPPSVSGTPGQRVTISCSGGRSNIGSNTVKWYQQLPGTAPKLLIYGNDQRPSGVPDRFSGSKSGTSASLAITGVQAEDEADYYCQSYDRGTHPSITFGTGTKVTVL = 2.6

Short answer for Y61 (scFv, V domains shown, also called Y61 scFv; clone Y61; not shown: scFv linker and any tags) VH: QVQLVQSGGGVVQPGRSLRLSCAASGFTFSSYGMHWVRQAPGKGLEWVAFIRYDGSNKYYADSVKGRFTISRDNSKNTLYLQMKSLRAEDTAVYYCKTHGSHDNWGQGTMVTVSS VL: SYVLTQPPSVSGTPGQRVTISCSGGRSNIGSNTVKWYQQLPGTAPKLLIYGNDQRPSGVPDRFSGSKSGTSASLAITGVQAEDEADYYCQSYDRGTHPALLFGTGTKVTVL : PHA assay IC50 was 0.14
